Target: Hfq (Pseudomonas aeruginosa PAO1, UniProt Q9HUM0 1-82)
Sequence (Q9HUM0 whole entry): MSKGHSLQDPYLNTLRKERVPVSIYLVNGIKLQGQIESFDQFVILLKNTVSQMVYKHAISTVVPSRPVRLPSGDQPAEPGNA
Assay: MST; 30 nM labelled Hfq6, no Crc; ES buffer: 10 mM Tris pH 8.0, 10 mM KCl, 40 mM NaCl, 1 mM MgCl2; MST + 0.05% Tween-20, room temperature; EMSA + 25 ng tRNA per 10 ul, 37 C 15 min (Fig 6D); NMR
Settings: protein: recombinant; tags: none stated; chain copies: 6; label: 5'-32P (EMSA); unlabelled (MST)
result_type: Kd (nM)
Just the number please, in nM, no unit attached.

// sample AAAAAUAACAACAAGAGG (ssRNA) [amiE6ARN] , its Kd was 43.2
